Target: HIV-1 protease (Human immunodeficiency virus type 1 group M subtype B)
Construct: made in house; host or cells: E. coli BL21 (dE3)pLysS, pET30a vector
Test: HIV-1 Protease Inhibition Assay
Assay type: biochemical
Details: fluorogenic substrate assay
reported_metric: IC50 (nM)
Answer with a number only, understood to be in nM.

[
  {
    "molecule": "CC(C)(C)OC(=O)N[C@@H](Cc1ccccc1)[C@H](O)CN(C[C@@H]1CCC(=O)N1)S(=O)(=O)c1ccc([N+](=O)[O-])cc1 [Compound 307b]",
    "reported_metric": "IC50",
    "result": 12
  },
  {
    "molecule": "CC(C)CN(C[C@@H](O)[C@H](Cc1ccccc1)NC(=O)OC(C)(C)C)S(=O)(=O)c1ccc(CN2CCN(C)CC2)cc1 [Compound 137]",
    "reported_metric": "IC50",
    "result": 2100
  },
  {
    "molecule": "CC(C)CN(C[C@@H](O)[C@H](Cc1ccccc1)NC(=O)OC1CO[C@H]2OCCC12)S(=O)(=O)c1ccc(Cl)c(O)c1 (stereo partly drawn) [Compound 151]",
    "reported_metric": "IC50",
    "result": 3.1
  },
  {
    "molecule": "CC(C)CN(C[C@@H](O)[C@H](Cc1ccccc1)NC(=O)OC1CC2CCO[C@@H]2C1)S(=O)(=O)c1ccc(CN)cc1 (stereo partly drawn) [Compound 125]",
    "reported_metric": "IC50",
    "result": 3.5
  },
  {
    "molecule": "COc1ccc(S(=O)(=O)N(CC(C)C)C[C@@H](O)C(Cc2ccccc2)NC(=O)O[C@H]2CO[C@@H]3OCCC[C@@H]32)cc1 (stereo partly drawn) [Compound 253]",
    "reported_metric": "IC50",
    "result": 1
  }
]

Quick check: IC50 of COc1ccc(S(=O)(=O)NN(CC(C)C)C[C@@H](O)[C@H](Cc2ccccc2)NC(=O)O[C@H]2CO[C@H]3OCCC32)cc1 (stereo partly drawn) [Compound 185] ?
312

* * *

Target: HIV-1 protease (Human immunodeficiency virus type 1 group M subtype B, UniProt P04585)
Note to self: use condition met only for Ki readings below 30 nM; a reading exactly at 30 nM still gets condition not met.

[
  {
    "molecule": "COc1ccc(S(=O)(=O)N(C[C@@H](O)[C@H](Cc2ccccc2)NC(=O)O[C@H]2CO[C@H]3OCCC32)NC(=O)OC(C)(C)C)cc1 (stereo partly drawn)",
    "group_label": "condition met"
  },
  {
    "molecule": "COc1ccc(S(=O)(=O)N(C[C@@H](O)[C@H](Cc2ccccc2)NC(=O)O[C@H]2CCOC2)C2CN(C)C2)cc1",
    "group_label": "condition not met"
  },
  {
    "molecule": "O=C(N[C@@H](Cc1ccccc1)[C@H](O)CN1CCCCCCCOc2cccc(c2)S1(=O)=O)O[C@H]1CO[C@H]2OCCC21 (stereo partly drawn)",
    "group_label": "condition met"
  }
]

Hi there! Is Ki for O=C(N[C@@H](Cc1ccccc1)[C@H](O)CN1CCCCCCCCCOc2ccccc2COC1=O)O[C@@H]1CC2CCO[C@@H]2C1 (stereo partly drawn) below 30 nM, do you know?
condition not met

Hi there! Is Ki for COc1ccc(S(=O)(=O)N(C[C@@H](O)[C@H](Cc2ccccc2)NC(=O)O[C@@H]2CC3CCO[C@@H]3C2)C2CN(C)C2)cc1 (stereo partly drawn) below 30 nM, do you know?
condition met

Hi there! Is Ki for CC(C)CN(C[C@@H](O)[C@H](Cc1ccccc1)NC(=O)OC1CC2CCO[C@@H]2C1)S(=O)(=O)c1cc(OC2CCCCO2)cc(OC2CCCCO2)c1 (stereo partly drawn) below 30 nM, do you know?
condition met

Hi there! Is Ki for CC(C)CN(C[C@@H](O)[C@H](Cc1ccccc1)NC(=O)O[C@H]1CCOC1)S(=O)(=O)c1ccc(F)c(N)c1 below 30 nM, do you know?
condition met

Hi there! Is Ki for CC(C)(C)OC(=O)NN(C[C@@H](O)[C@H](Cc1ccccc1)NC(=O)O[C@H]1CO[C@H]2OCCC21)S(=O)(=O)c1ccc(F)c(N)c1 (stereo partly drawn) below 30 nM, do you know?
condition met

Hi there! Is Ki for CC(C)CN(C[C@@H](O)[C@H](Cc1ccccc1)NC(=O)O[C@H]1CCOC1)S(=O)(=O)c1ccc(F)c([N+](=O)[O-])c1 below 30 nM, do you know?
condition not met

Hi there! Is Ki for CC(C)CN(C[C@@H](O)[C@H](Cc1ccccc1)NC(=O)OC(C)(C)C)S(=O)(=O)c1cncc(N)c1 below 30 nM, do you know?
condition met

Hi there! Is Ki for C=CCCCCN(C[C@@H](O)[C@H](Cc1ccccc1)NC(=O)O[C@@H]1CC2CCO[C@@H]2C1)S(=O)(=O)c1cccc(C(O)CC=C)c1 (stereo partly drawn) below 30 nM, do you know?
condition met

Hi there! Is Ki for Cc1ccc(S(=O)(=O)N(CCN(C)C)C[C@@H](O)[C@H](Cc2ccccc2)NC(=O)O[C@@H]2CO[C@@H]3OCCC[C@@H]32)cc1CO below 30 nM, do you know?
condition not met
